- tested_target: AgifOBP9 (Aphidius gifuensis, UniProt A0A3Q9EL79, L121S)
- Sequence (A0A3Q9EL79 entry or part of it L121S): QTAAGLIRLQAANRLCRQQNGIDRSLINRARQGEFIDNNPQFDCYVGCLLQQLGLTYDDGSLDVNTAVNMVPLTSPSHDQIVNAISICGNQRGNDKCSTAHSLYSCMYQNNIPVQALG
- experiment: Fluorescence competitive binding assay (1-NPN displacement) with recombinant AgifOBP9
- settings: displacement of 1-NPN, 2 μM protein, Tris-HCl pH 7.4, room temperature; read-out: OBP9 IC50
value_type: pIC50
Scale: negative log10 of molar concentration, which is what pIC50 denotes.

pIC50 lookup needed for CC1=COC(=O)[C@H]2[C@@H]1CC[C@@H]2C , thanks.
5.04

pIC50 lookup needed for C=C(C)C1CC=C(C)CC1 (single isomer, unassigned; (+)) [(+)-Limonene] , thanks.
4.89

pIC50 lookup needed for C=C1CCC2CC1C2(C)C (stereo not drawn) [(-)-β-Pinene] , thanks.
4.93

pIC50 lookup needed for CC1=CCC2CC1C2(C)C (stereo not drawn) [(-)-α-Pinene] , thanks.
4.62

pIC50 lookup needed for C=CC(=C)CC/C=C(\C)CCC=C(C)C [(E)-β-Farnesene] , thanks.
4.75
